The entries below are paired with their reported IC50.
Target: HLA-A*0201 (Human)
Assay: competition vs 125I probe, purified HLA
Respond numerically; units are nM and should not be typed.

INPUT: IC50 lookup needed for p53.69 AAPPVAPA (peptide) , thanks.
OUTPUT: 5000

INPUT: IC50 lookup needed for p53.135B1L2B7 BLLAKTBPV (peptide) , thanks.
OUTPUT: 46

###

The entries below are paired with their reported IC50.
Biological target: HLA-A*0203 (Human)
Test: competition vs 125I probe, purified HLA
Respond numerically; units are nM and should not be typed.

[[record]]
substance = "p53.135B1B7 BQLAKTBPV (peptide)"
measure = "IC50"
value_reported = 15

[[record]]
substance = "p53.135B1L2B7 BLLAKTBPV (peptide)"
measure = "IC50"
value_reported = 7.7


INPUT: IC50 lookup needed for p53.129B7V9 ALNKMFBQV (peptide) , thanks.
OUTPUT: 23

###

binding affinity ratio (IC50 of standard peptide/IC50 of test peptide), HLA-A*2401 (Human), per-entry values.
Write the value as a bare number.

Take a look at these entries with their results.
[[record]]
substance = "p53 peptide TFSDLWKL (position 18, 8 amino acids)"
value_reported = 0.0016

[[record]]
substance = "p53 peptide RFEMFREL (position 337, 8 amino acids)"
value_reported = -0.0004

[[record]]
substance = "p53 peptide TYQGSYGF (position 102, 8 amino acids)"
value_reported = 0.11


// switching to the query substance
INPUT: Quick check: binding affinity ratio (IC50 of standard peptide/IC50 of test peptide) on HLA-A*2401 (Human), item p53 peptide SYGFRLGF (position 106, 8 amino acids) ?
OUTPUT: 0.028

###

Molecular target: HLA-A*0206 (Human)
Assay: competition vs 125I probe, purified HLA
The entries below are paired with their reported pIC50.
// pIC50: -log10(molar conc.)

[[record]]
substance = "p53.135B1B7 BQLAKTBPV (peptide)"
measure = "pIC50"
value_reported = 7.17

[[record]]
substance = "p53.129B7V9 ALNKMFBQV (peptide)"
measure = "pIC50"
value_reported = 7.31


INPUT: pIC50 lookup needed for p53.135B1L2B7 BLLAKTBPV (peptide) , thanks.
OUTPUT: 7.19

###

Molecular target: HLA-A*0202 (Human)
Assay: competition vs 125I probe, purified HLA
measure: pIC50
// pIC50: -log10(molar conc.)

INPUT: pIC50 lookup needed for p53.135B1B7 BQLAKTBPV (peptide) , thanks.
OUTPUT: 7.15
